B1: VH:VL chains; a variant is named by its letters at X, in order (parent)
chain 1: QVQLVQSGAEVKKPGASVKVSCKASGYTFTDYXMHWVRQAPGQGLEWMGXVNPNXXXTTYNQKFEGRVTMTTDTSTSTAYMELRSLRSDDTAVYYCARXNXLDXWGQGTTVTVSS
chain 2: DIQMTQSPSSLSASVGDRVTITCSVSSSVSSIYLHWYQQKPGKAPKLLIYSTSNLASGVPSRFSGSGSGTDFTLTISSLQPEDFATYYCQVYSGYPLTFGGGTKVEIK

- Variants of: B1
- measurement notes: yeast display scFab, FACS + sequencing
- assay conditions: with MET
The list shows a part of the results. No count for the full screen is at hand.
endpoint: antigen binding call

// worked examples, antigen binding call included
YRARSAGV	binds
SKGTDDWV	no binding
VKGRASGY	no binding
AGGGNDGA	no binding
YARTGFGA	binds

Identify measured antigen binding call corresponding to YREGGSGV
binds

Report antigen binding call, nothing else, for this variant: FRGGSAVD
binds

# return recorded antigen binding call for entry DEGKDDVA
no binding
